pIC50 for assorted binders
# system-name: human DLL4 ECD (human)
# Sequence (chain, as listed by the source): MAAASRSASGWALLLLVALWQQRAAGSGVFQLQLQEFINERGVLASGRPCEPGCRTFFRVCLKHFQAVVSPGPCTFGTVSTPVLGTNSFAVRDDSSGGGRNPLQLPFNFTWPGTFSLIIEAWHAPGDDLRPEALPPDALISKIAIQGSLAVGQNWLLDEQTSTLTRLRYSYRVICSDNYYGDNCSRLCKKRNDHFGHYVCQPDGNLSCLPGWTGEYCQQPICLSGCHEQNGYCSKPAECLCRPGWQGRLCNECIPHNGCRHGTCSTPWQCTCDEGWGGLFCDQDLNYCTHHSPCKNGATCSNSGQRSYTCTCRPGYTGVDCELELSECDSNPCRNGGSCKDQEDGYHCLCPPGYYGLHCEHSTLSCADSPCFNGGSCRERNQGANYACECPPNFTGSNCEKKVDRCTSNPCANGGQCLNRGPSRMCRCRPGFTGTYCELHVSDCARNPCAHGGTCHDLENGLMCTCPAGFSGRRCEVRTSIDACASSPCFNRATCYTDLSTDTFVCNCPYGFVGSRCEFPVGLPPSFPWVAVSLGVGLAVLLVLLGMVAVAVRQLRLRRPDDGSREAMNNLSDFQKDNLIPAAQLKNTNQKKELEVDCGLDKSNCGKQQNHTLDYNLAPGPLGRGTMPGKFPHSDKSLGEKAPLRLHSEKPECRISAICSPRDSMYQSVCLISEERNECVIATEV
# assay-procedure: competition ELISA
Notebook: values listed as pIC50 are -log10 of the concentration (mol/L).

# binder, pIC50
records = [
    ("h38H12.12 (antibody, V domains shown) VH: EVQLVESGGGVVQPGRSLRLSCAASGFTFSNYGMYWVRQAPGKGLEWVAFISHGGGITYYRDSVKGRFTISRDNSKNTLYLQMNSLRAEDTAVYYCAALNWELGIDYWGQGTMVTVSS VL: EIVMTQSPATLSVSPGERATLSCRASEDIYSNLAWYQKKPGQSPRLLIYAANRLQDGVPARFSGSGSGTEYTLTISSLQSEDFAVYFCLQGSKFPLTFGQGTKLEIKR", 8.49),
    ("h38H12.6 (antibody, V domains shown) VH: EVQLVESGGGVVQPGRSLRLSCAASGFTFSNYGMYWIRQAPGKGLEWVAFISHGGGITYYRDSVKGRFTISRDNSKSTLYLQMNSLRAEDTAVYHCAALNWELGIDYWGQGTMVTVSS VL: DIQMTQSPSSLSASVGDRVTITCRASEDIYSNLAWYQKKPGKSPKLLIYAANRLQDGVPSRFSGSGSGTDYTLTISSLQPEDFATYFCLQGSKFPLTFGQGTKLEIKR", 7.57),
    ("h38H12.7 (antibody, V domains shown) VH: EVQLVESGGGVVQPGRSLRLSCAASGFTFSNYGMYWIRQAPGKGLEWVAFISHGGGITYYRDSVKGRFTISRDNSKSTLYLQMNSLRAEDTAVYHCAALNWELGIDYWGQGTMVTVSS VL: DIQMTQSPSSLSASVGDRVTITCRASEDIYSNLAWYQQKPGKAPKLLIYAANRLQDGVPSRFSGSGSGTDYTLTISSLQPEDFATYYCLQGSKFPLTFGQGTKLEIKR", 7.90),
    ("h38H12.10 (antibody, V domains shown) VH: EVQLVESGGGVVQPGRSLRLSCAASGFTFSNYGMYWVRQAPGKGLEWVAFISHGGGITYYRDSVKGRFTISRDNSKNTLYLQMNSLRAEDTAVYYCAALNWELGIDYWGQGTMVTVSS VL: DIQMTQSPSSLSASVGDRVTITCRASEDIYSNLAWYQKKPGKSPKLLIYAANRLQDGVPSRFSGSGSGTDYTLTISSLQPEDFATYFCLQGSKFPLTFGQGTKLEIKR", 8.41),
]

Would you kindly look at the next entry?
Request: Which pIC50 value belongs to h38H12.11 (antibody, V domains shown) VH: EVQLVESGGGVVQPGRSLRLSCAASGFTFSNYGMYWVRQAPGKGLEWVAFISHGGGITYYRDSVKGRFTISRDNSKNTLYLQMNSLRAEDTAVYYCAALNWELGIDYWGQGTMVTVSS VL: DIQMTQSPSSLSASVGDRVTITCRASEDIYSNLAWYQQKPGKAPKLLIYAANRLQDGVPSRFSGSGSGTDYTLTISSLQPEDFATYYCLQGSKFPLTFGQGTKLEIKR ?
Response: 8.42
